Sequence of the target: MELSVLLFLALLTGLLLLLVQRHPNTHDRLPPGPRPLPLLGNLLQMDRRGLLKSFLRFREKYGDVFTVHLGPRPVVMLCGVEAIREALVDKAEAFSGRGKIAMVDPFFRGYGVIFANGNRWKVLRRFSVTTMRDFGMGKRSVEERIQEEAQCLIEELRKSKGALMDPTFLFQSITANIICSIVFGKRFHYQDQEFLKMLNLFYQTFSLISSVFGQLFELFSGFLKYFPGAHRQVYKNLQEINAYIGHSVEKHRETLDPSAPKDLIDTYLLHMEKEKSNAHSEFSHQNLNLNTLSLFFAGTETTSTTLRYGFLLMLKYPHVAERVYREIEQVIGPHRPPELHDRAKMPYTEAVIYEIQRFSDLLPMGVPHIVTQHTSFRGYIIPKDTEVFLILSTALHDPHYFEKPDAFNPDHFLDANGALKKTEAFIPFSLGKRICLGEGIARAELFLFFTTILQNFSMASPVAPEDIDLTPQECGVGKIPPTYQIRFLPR
reported_endpoint: IC50

[
  {
    "structure_smiles": "COCCNc1cc(O)c2c(=O)c3c(-c4nccs4)[nH]c(Cc4ccc5c(c4)OCO5)c3oc2c1",
    "assay_value": "> 10 µM"
  }
]

Taken from ChEMBL document CHEMBL4196172.
